Molecular target: T1, human LAG-3 on cells (HEK293-hLAG-3 stable cell line) (human, UniProt P18627 23-525)
T1 sequence: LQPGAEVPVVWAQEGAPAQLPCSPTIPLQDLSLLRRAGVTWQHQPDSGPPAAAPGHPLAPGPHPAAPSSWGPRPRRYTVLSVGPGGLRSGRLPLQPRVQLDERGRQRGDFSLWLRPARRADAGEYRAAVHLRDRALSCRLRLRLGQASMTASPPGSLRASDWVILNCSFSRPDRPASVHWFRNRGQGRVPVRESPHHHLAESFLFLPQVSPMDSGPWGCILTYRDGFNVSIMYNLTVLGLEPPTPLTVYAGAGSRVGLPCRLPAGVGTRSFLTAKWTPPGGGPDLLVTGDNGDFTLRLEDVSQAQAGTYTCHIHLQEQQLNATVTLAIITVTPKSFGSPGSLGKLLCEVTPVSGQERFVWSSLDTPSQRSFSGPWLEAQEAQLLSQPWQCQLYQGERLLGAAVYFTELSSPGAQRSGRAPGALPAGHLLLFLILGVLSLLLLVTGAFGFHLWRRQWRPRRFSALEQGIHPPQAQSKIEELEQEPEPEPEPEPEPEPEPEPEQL
Experiment: FACS, HEK293-hLAG-3, antibody 40 nM
# Mean fluorescence intensity annotations

Qu. Name the reported Mean fluorescence intensity value associated with the binder 405B8H3 mouse-human chimeric antibody (antibody, V domains shown, also called mAb103-405B8H3) VH: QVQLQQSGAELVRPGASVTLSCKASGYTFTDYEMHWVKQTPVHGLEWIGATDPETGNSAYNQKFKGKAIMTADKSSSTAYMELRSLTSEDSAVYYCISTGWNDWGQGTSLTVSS VL: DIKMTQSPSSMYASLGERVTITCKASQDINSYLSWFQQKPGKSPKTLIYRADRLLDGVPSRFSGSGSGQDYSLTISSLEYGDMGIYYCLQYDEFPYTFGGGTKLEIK
Ans. 266

// next entry
Qu. For the binder 405B8H3-4 humanized antibody (antibody, V domains shown) VH: QVQLVQSGAEVKKPGASVKVSCKASGYTFTDYEMHWVKQAPGQGLEWIGATDPETGNSAYNQKFKGKATMTADKSTSTAYMELSSLRSEDTAVYYCISTGWNDWGQGTTVTVSS VL: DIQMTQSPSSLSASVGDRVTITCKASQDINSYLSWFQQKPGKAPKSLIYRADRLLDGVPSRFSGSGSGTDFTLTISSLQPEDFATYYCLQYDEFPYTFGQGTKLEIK , what Mean fluorescence intensity is on record?
Ans. 251

All values here come from patent US20210155689A1.
